study.system: STAT6 (Homo sapiens, UniProt P42226)
Construct: These cells express endogenous STAT6; host or cells: HeLa LgBiT clone 4.14
Sequence (P42226 whole entry): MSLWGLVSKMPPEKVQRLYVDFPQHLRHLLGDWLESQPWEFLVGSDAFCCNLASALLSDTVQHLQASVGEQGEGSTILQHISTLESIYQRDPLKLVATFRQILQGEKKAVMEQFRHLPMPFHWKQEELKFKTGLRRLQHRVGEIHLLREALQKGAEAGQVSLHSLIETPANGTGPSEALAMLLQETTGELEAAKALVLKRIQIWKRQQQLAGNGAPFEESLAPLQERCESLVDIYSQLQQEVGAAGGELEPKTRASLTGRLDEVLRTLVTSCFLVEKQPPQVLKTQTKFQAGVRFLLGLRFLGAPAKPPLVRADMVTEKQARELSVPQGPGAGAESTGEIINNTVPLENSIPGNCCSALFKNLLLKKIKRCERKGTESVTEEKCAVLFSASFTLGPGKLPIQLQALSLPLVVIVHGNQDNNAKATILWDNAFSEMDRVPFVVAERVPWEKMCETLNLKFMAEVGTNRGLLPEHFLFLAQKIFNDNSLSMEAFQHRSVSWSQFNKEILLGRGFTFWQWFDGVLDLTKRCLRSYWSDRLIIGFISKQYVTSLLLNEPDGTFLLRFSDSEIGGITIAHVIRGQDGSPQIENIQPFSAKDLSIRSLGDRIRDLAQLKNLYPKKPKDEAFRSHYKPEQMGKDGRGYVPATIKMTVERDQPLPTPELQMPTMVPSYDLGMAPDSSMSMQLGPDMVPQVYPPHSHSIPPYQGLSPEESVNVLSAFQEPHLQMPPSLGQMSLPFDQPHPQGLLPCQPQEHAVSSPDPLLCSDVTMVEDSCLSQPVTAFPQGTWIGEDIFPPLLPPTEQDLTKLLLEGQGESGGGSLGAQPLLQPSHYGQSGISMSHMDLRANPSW
assay.procedure: Stat6 Degrader Assay (HiBiT based, HeLa LgBiT clone 4.14)
Type: cell-based
experimental.context: HeLa LgBiT clone 4.14 HiBiT-STAT6, 4-24 h incubation; values given for compounds with >80% Emax; geometric mean; read-out: STAT6 degradation DC50
readout: DC50 (nM)
Supply the numeric figure in nM, leaving out any unit text.

// known answers, use as guide
1. C[C@H]1CN(Cc2ccc3c(c2)C2(CC2)C(=O)N3[C@@H]2CCC(=O)NC2=O)CCN1CC1CCN(C(=O)c2cc(F)c(C3=CCN([C@@H](C)c4cc5c(-n6cc(F)c7c(c6=O)CCN7)ccnc5n4C)CC3)c(F)c2)CC1 [Example 3u127] | 5.4
2. CNc1cc(=O)n(-c2ccnc3c2cc([C@H](C)N2CC=C(c4c(C)cc(C(=O)N5CCC(CN6CCN(c7ccc8c(c7)C(C)(C)C(=O)N8[C@H]7CCC(=O)NC7=O)CC6)CC5)cc4F)CC2)n3C)cc1F (single isomer, unassigned) [Example 3u285] | 7.8
3. CNc1cc(=O)n(-c2ccnc3c2cc([C@H](C)N2CC=C(c4c(C)cc(C(=O)N5CCC(CN6CCN(Cc7ccc8c(c7)n(C)c(=O)n8C7CCC(=O)NC7=O)C[C@@H]6C)CC5)cc4F)CC2)n3C)cc1F (stereo partly shown) [Example 3u90] | 0.3

Which value of DC50 has been reported for CNc1ccn(-c2ccnc3c2cc([C@H](C)N2CC=C(c4c(C)cc(C(=O)N5CCC(CN6CCN(Cc7ccc8c(c7)n(C7CC7)c(=O)n8[C@H]7CCC(=O)NC7=O)C[C@@H]6C)CC5)cc4F)CC2)n3C)c(=O)c1 (single isomer, unassigned) [Example 3u112] in the records?
0.5

---

study.system: STAT6 (Homo sapiens)
Construct: These cells express endogenous STAT6; host or cells: HeLa LgBiT clone 4.14
assay.procedure: Stat6 Degrader Assay (HiBiT based, HeLa LgBiT clone 4.14)
Assay type: cell-based
experimental.context: HeLa LgBiT clone 4.14 HiBiT-STAT6, 4-24 h incubation; values given for compounds with >80% Emax; geometric mean; read-out: STAT6 degradation DC50
readout: DC50 (nM)
Supply the numeric figure in nM, leaving out any unit text.

// known answers, use as guide
1) Cc1cc(C(=O)N2CCC(CN3CCN(Cc4ccc5c(c4)n(C)c(=O)n5C4CCC(=O)NC4=O)C[C@@H]3C)CC2)cc(F)c1C1CCN(Cc2cc3c(-n4ccc5c(c4=O)CCN5)ccnc3n2C)CC1 (stereo partly shown) | 4.3
2) CNc1cc(=O)n(-c2ccnc3c2cc(CN2CC=C(c4c(F)cc(C(=O)N5CCC(CN6CCN(Cc7ccc8c(c7)C(C)(C)C(=O)N8[C@H]7CCC(=O)NC7=O)C[C@@H]6C)CC5)cc4F)CC2)n3C)cc1F (single isomer, unassigned) | 9.8
3) Cc1cc(C(=O)N2CCC(CN3CCN(Cc4ccc5c(c4)C4(CC4)C(=O)N5C4CCC(=O)NC4=O)C[C@@H]3C)CC2)cc(F)c1C1=CCN([C@@H](C)c2cc3c(-n4cc(F)c(N)c(F)c4=O)ccnc3n2C)CC1 (stereo partly shown) | 2.5

Below: the item to evaluate.
Which value of DC50 has been reported for CNc1cc(=O)n(-c2ccnc3c2cc([C@H](C)N2CC=C(c4c(C)cc(C(=O)N5CCC(CN6CCN(Cc7ccc8c(c7)n(C)c(=O)n8[C@H]7CCC(=O)NC7=O)C[C@@H]6C)CC5)cc4F)CC2)n3C)cc1F (single isomer, unassigned) in the records?
0.6
